The reader will find IC50 measurements below, all made with Norepinephrine transporter (Rattus norvegicus).
Sequence (Q9WTR4 whole entry): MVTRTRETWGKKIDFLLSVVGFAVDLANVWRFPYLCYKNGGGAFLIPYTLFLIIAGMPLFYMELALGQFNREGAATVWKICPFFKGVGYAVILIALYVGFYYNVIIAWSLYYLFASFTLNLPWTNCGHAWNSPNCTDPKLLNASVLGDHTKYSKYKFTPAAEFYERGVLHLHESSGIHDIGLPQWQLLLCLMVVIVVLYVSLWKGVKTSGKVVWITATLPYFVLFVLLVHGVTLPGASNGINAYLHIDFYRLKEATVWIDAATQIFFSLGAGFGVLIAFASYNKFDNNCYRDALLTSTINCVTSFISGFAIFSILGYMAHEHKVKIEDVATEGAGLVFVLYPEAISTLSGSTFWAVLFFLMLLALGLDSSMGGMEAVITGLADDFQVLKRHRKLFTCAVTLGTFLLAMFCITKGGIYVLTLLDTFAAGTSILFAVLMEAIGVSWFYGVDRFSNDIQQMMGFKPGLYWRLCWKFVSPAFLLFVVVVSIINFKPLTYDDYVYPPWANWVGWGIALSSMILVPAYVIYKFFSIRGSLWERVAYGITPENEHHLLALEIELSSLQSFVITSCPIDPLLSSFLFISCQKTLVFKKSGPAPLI
Report the value in µM with no unit label.

Solved cases (6 shown):
Nc1c2ccccc2nc2c1cnc1cc(Cl)ccc12 :: 0.2
CCCCC1(O)c2nc3ccccc3c(N)c2CC1C (configuration not stated) :: 12
Nc1c2c(nc3ccccc13)-c1ccccc1NCC2 :: 3
Nc1c2c(nc3ccccc13)C1CCC2C1 (configuration not stated) :: 6.1
COc1ccc2c(c1)CCCc1c-2nc2ccccc2c1N :: 3.6
Nc1c2c(nc3ccccc13)-c1ccccc1NCCC2 :: 2.5

Lab note: next molecule to report on.
*Q* Entry under review: `Nc1c2c(nc3ccccc13)CCC2` . Reported IC50?
*A* 0.6
